- Test system: gene editing with Cas9
- ASSAY PROTOCOL: Screen of 322 new SSAP proteins, gene editing activity with Cas9 (Table 5)
- Assay type: cell-based
- CONDITION SUMMARY: normalized
# Cas9 with SSAP activity (normalized) per entry
I only need the number, thanks.

Known results for molecules:
MOLECULE	Cas9 with SSAP activity (normalized)
SSAP_284: SEQ ID NO: 453; Paenibacillus sp. VMFN-D1 (protein, listed as Paenibacillus sp.) AKALLENKLQERAAGASTPSTQGTSLKALLNSPAIKKRFDELLDKRSAQYMTSIVNLYNSDAMLQKAEPMSVISSCIVAATLDLPVDKNLGYAWIVPYSGKAQFQLGYKGYIQLALRTGQYKAINVIEVYEGELVKWNPLTEALELDFEKRKSDAVIGYAGYFELINGFRKSVYWTREQIESHRKKFSKSDFGWKKDYDAMAKKTIIRNMLSKWGILSIEMQDAYSKEIEAIPPLNNENEEDPPIDLTPEDYRVGDEPQDGKEQGEMNFE	−1.388
SSAP_84: SEQ ID NO: 253; Bet Fimbriiglobus ruber (protein, Fimbriiglobus ruber) TDIAHRSYSAPQLSLIRRTVAKDTNQDEFDLFIEICKQQGLDPFKKQIFAQVYNKDKADKRQIVIVTSIDGYRAKAQRCGDYRPAEEETRFEADAALKIRRQPMGSFVRSCGLQVRPGQGVVSRVGEARWDEFAPLDDAEFDWVDTGETWPDTGKPKKKKVAKSAKKTLKEGNWKNMPHVMLGKCAEAQALGGGGRKRSAACTSKRRWTRSTWT	−0.590
SSAP_130: SEQ ID NO: 299; Peptoanaerobacter stomatis (protein, listed as Peptoanaerobacter stomatis) GAKELIQKKQENKQISPTSNMNMLLQSMAGAIKKALPAQINSERFQRVALTAFSSNQKLQQCDPISFLAAMMQSAQLGLEPNTPLGQAYLIPYGKQVQFQVGYKGLLELAQRSGQFKSIYSHEVRENDEFEMEYGLNQKLVHKPNLKQERGEVIGYYACYHLTNGGESMFFMTKDEIINFGKSKSKTFNNGPWQTDFDAMAKKTVLKQLLKYAPLSIESQKFMSMDETVKSDISANMDEINNDTVDFEVDIQTGEVINDIVVENTNEDEAN	−0.800
SSAP_278: SEQ ID NO: 447; Paraliobacillus ryukyuensis (protein, listed as Paraliobacillus ryukyuensis) ATNDTLKNQISNKKNNQVAEGKQGTTMKGLLNSPAVMKRFEEVLGKRANQFTASILSLYNNEKTLQKSEPMSVISSAMIAATLDLPIDKNLGYAWIVPYGNKAQFQLGYKGYIQLALRTGQYRNINVIEVYEGELVKWNRLTEELELDFEQKKSDKVIGYTGYFELINGFRKTVYWSKADIEKHKQKFSKSNFGWSNDWDAMAKKTVIRNMLNKWGILSIDMQKAYSTDEIEQEQESNDFIDGEWAEVSEDDITEAMNEV	2.231
SSAP_233: SEQ ID NO: 402; Actinoplanes italicus (protein, listed as Actinoplanes italicus) PETIANAVAQRDQSPTALVADYRNDFAAVLPSHLPPATFVRLAQGVLRRDQNLMRTAMNNPGSLMTAMLDCARLGHEPGTPAYYFVPIKGAIEGWEGYRGVIERIYRAGAVQSVRAEVVRENDFYEYEEGMPHPIHRYERFASPEQRGPLLGVWAYAVMLDGGMSRPVEMGREEVLAHRDMNPSNNRSDSPWKKWERSMWLKCAVHELEKWVPSSTEYRREIARMSAPQPAAAAAPVTYVPPQVGQRDAIEGEVAEDWPEPAEVPGGAQ	−0.424
SSAP_82: SEQ ID NO: 251 (protein) ENEVMTQDQAYEVASPFGSSENFQKLFDIGKMFASSSLVPDRYRGKPMDCTIAVDMANRMGVSPMMVMQQLYVVKGNPQWSGQACMSLIRGSSEYKNVRPVYTGKKGEDSWGCYIEAEKKKTGEIVKGTEVTIAMAKAEGWYSKKDKYGNETSKWQTMPELMLAYRAAAFFARVYIPNALMGCAVEGEAEDIMKRAITAEDPFKEDAK	−0.776
SSAP_136: SEQ ID NO: 305; Corynebacterium striatum (protein, listed as Corynebacterium striatum) GTNLEQRMAANNAPAKQNRPVTLADQIRSMESQFQLAMPKGMEAQQLVRDALTCLRQTPKLAECTPQSVLGGLMTCSQLGLRPGVLGHAYLLPFWDRKQGGMVAQLVVGYRGLVELAHRSGQIQSLIARTVYENDHFDVDYGLDDKLVHKPCMNGPKGNPIAYYAVAKFTTGGHSFIVMSKDEMLAYRDEFAKAKNKQGEVFGPWADNFDAMAHKTCVRQLAKWMPSSTDLDRGIAADETVRVDLSESALDYPQHVDGEVVDSKPAEDEAA	−0.262

Kindly consider the entry below.
**Q:** Need Cas9 with SSAP activity (normalized) of SSAP_319: SEQ ID NO: 488; Helicobacter trogontum (protein, listed as Helicobacter trogontum) SNITTIQRKNEALALLENKEIQERLCALCGNEASKDKFKASLLNIALDSNLSACSMQSIVKASLDIAGLKLSLNKNLGKAYIVPRKVKIGNDYITEARIDIGYKGWLELAKRSKLSVKAHSVFDCDDFVYSVDGVDEYMKLTPNFELRQEHDSAWVKEHLKGIVVGIKDLKSGDSEVKFVSKGTLLKIMQKNDSVKNGKYSAYTDWLHEMLLAKAIKSCLSKTAMSEDTFYLIISNNKLFI , thanks.
**A:** 1.773
